target: CFTR (Homo sapiens); assay: Membrane Potential Dye, Enteroid Assay A; format: cell-based; details: read-out: Ent. A EC50
Sequence (P13569 with tags, fused parts or gaps DEL508-508): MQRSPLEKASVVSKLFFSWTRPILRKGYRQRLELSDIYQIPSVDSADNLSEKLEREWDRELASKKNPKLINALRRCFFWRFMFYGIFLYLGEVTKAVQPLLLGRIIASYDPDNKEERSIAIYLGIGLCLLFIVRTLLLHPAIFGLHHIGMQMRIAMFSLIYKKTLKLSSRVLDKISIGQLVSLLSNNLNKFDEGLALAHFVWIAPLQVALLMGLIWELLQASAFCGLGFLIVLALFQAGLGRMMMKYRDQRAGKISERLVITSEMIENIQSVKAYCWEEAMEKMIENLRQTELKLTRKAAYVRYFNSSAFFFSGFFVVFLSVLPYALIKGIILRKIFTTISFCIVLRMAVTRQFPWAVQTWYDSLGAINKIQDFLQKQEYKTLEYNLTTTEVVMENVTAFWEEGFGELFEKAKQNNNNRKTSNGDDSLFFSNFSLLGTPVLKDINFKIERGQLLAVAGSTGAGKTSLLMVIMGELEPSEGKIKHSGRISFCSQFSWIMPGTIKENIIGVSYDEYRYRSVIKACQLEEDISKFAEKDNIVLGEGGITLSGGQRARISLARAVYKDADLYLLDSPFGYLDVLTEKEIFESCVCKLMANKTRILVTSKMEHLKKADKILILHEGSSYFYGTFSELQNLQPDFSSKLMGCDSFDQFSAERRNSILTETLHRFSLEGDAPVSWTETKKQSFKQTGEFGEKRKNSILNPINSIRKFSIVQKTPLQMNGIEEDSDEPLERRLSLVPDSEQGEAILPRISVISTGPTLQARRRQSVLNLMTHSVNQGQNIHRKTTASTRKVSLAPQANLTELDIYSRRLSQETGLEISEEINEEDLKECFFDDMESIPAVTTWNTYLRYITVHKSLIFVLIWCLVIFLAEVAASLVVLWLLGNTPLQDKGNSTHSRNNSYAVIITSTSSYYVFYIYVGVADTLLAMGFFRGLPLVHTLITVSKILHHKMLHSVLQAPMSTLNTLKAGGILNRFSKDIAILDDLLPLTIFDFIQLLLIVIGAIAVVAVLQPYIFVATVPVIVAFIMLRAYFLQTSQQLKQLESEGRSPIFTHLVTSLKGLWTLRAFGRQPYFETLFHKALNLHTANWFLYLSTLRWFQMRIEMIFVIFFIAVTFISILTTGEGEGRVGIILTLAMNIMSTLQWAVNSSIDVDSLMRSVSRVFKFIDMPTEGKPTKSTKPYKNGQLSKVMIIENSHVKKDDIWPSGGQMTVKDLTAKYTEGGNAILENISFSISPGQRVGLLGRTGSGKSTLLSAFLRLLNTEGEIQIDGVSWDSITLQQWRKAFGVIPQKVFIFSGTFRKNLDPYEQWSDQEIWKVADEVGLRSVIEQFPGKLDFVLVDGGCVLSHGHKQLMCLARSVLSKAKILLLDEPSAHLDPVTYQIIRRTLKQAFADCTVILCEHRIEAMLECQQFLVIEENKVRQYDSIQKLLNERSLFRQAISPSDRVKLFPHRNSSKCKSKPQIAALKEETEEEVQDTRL
pEC50: −log10 of the molar value.
property.measured: pEC50

{"compound": "Cc1cccc(C)c1-c1cc2nc(n1)NS(=O)(=O)c1cccc(c1)C(=O)N([C@H]1CC3(C[C@@H](CO)C3)C1)[C@H](CC(C)C)CO2 (stereo partly drawn)", "result": "> 6.00"}
{"compound": "Cc1cccc(C)c1-c1cc2nc(n1)NS(=O)(=O)c1cccc(c1)C(=O)N(C1CC3(CCN(C)CC3)C1)C(CC1(C(F)(F)F)CC1)CO2 (single isomer, unassigned) [Compound 136]", "result": "> 6.00"}
{"compound": "Cc1cccc(C)c1-c1cc2nc(n1)NS(=O)(=O)c1cccc(c1)C(=O)N(C1CC3(CC3)C1)[C@H](CC(C)(C)C)CO2", "result": "> 6.00"}

Q) Would you mind telling me what pEC50 value was observed for Cc1cccc(C)c1-c1cc2nc(n1)NS(=O)(=O)c1cccc(c1)C(=O)N(C1CC3(CC3)C1)[C@H](C)CO2 ?
A) 5.52 to 6.00

Q) And then Cc1cccc(C)c1-c1cc2nc(n1)NS(=O)(=O)c1cccc(c1)C(=O)N(C1CC3(CC3)C1)[C@@H](CC1(C(F)(F)F)CC1)CO2 , what is it?
A) > 6.00

Q) And then Cc1cccc(C)c1-c1cc2nc(n1)NS(=O)(=O)c1cccc(c1)C(=O)N(C1CC3(CC3)C1)[C@@H](CC(C)C)CO2 , what is it?
A) > 6.00

Q) And then Cc1cccc(C)c1-c1cc2nc(n1)NS(=O)(=O)c1cccc(c1)C(=O)N([C@H]1CC3(C[C@H](N(C)C)C3)C1)[C@H](CC(C)C)CO2 (stereo partly drawn) [Compound 313] , what is it?
A) > 6.00

Q) And then Cc1cccc(C)c1-c1cc2nc(n1)NS(=O)(=O)c1cccc(n1)C(=O)N(C1CC3(CC3)C1)[C@H](CC(C)(C)C)CO2 , what is it?
A) > 6.00

Q) And then Cc1cccc(C)c1-c1cc2nc(n1)NS(=O)(=O)c1cccc(c1)C(=O)N(C1CC3(CCN(C(C)C)CC3)C1)[C@H](CC(C)C)CO2 , what is it?
A) > 6.00

Q) And then Cc1cccc(C)c1-c1cc2nc(n1)NS(=O)(=O)c1cccc(c1)C(=O)N(C1CC3(CCNCC3)C1)[C@H](CC(C)C)CO2 , what is it?
A) 4.52 to 5.52

Q) And then CC(C)C[C@@H]1COc2cc(-c3ccccc3C(C)C)nc(n2)NS(=O)(=O)c2cccc(c2)C(=O)N1C1CC2(CCN(C)CC2)C1 , what is it?
A) > 6.00

Q) And then COC(=O)N1CCC2(CC1)CC(N1C(=O)c3cccc(c3)S(=O)(=O)Nc3cc(cc(-c4c(C)cccc4C)n3)OC[C@H]1CC(C)C)C2 , what is it?
A) > 6.00

====

biological target: UniProt:P13569; test: Membrane Potential Dye, Enteroid Assay B; format: cell-based
property.measured: Ent. B Max Activity (%)

Consider the following illustrative entries.
{"molecule": "Cc1cccc(C)c1-c1cc2nc(n1)NS(=O)(=O)c1cccc(c1)C(=O)N(C1CC3(CCN(CCF)CC3)C1)[C@H](CC(C)C)CO2 [Compound 321]", "Ent. B Max Activity (%)": "+++ (+++ is >60%)"}
{"molecule": "COCCN1CCC2(CC1)CC(N1C(=O)c3cccc(c3)S(=O)(=O)Nc3nc(cc(-c4c(C)cccc4C)n3)OC[C@H]1CC(C)(C)C)C2 [Compound 138]", "Ent. B Max Activity (%)": "+++ (+++ is >60%)"}
{"molecule": "Cc1cccc(C)c1-c1cc2nc(n1)NS(=O)(=O)c1cccc(n1)C(=O)N(C1CC3(CCN(C)CC3)C1)[C@H](CC(C)C)CO2 [Compound 390]", "Ent. B Max Activity (%)": "+++ (+++ is >60%)"}
{"molecule": "Cc1cccc(C)c1-c1cc2nc(n1)NS(=O)(=O)c1cccc(c1)C(=O)N(C1CC3(C1)CN(C(C)C)C3)[C@H](CC(C)C)CO2 [Compound 103]", "Ent. B Max Activity (%)": "+++ (+++ is >60%)"}
{"molecule": "Cc1cccc(C)c1-c1cc2nc(n1)NS(=O)(=O)c1cccc(c1)C(=O)N(C1CC3(CCN(C(=O)OC(C)C)CC3)C1)[C@H](CC(C)C)CO2 [Compound 21]", "Ent. B Max Activity (%)": "+++ (+++ is >60%)"}

Q) Would you mind telling me what Ent. B Max Activity (%) value was observed for Cc1cccc(C)c1-c1cc2nc(n1)NS(=O)(=O)c1cccc(c1)C(=O)N(C1CC3(CCN(C)CC3)C1)CC(CC(C)C)(CC(C)C)CO2 (centres unmarked) [Compound 311] ?
A) +++ (+++ is >60%)

Q) And then Cc1cccc(C)c1-c1cc2nc(n1)NS(=O)(=O)c1cccc(c1)C(=O)N(C1CC3(CC3)C1)C(CC(C)(C)C(F)(F)F)CO2 (centres unmarked) [Compound 217] , what is it?
A) +++ (+++ is >60%)

Q) And then Cc1cccc(C)c1-c1cc2nc(n1)NS(=O)(=O)c1cccc(c1)C(=O)N(C1CCN(C(=O)OC(C)C)C1)[C@H](CC(C)C)CO2 (single isomer, unassigned) [Compound 38] , what is it?
A) ++ (++ is 30-60%)
